Just for reference, PubChem BioAssay (NCATS) is where these values come from.

Listing of entries alongside the reported Potency.
Test: qHTS assay to identify inhibitors of the type 1 interferon - major histocompatibility complex class I in skeletal muscle: Counter screen cell viability and HiBit confirmation (AID 1347412); further: potency means the concentration at half of the fitted maximal effect; nearly all actives have a fitted effect of over 60% in size
Details: iHSKM muscle cells + IFN-b, HiBiT or CellTiter-Glo, 24 h; HiBiT
Results filed as inconclusive are left out. Activity calls are given as the source filed them. The call rests on the fitted dose curve; in most records, active means well fitted inhibition curve with a large enough effect; inconclusive means small, poorly fitted or top-dose-only effect; inactive means no such curve, though single readings can be large or run the other way.
property.measured: Potency

compound	test.result
C[C@@]12C(=O)OC(=O)[C@]1(C)[C@H]1CC[C@@H]2O1	27.9 µM (active)
COc1cccc2c1C(=O)c1c(O)c3c(c(O)c1C2=O)C[C@@](O)(/C(CO)=N/NC(=O)CCCCCN1C(=O)C=CC1=O)C[C@@H]3O[C@H]1C[C@H](N)[C@H](O)[C@H](C)O1	2.79 µM (active)
CN(C)C/C=C/C(=O)Nc1ccc(C(=O)N2CCC[C@@H](Nc3ncc(Cl)c(-c4c[nH]c5ccccc45)n3)C2)cc1	1.11 µM (active)
O=C(/C=C/c1ccc2ccc(C(F)(F)F)cc2n1)c1ccncc1	4.43 µM (active)
CN(C)C[C@@H]1CCn2cc(c3ccccc32)C2=C(C(=O)NC2=O)c2cn(c3ccccc23)CCO1	27.9 µM (active)
Cc1[nH]c(/C=C2\C(=O)Nc3ccc(S(=O)(=O)Cc4c(Cl)cccc4Cl)cc32)c(C)c1C(=O)N1CCC[C@@H]1CN1CCCC1	22.2 µM (active)
NC(=O)c1cnc2[nH]ccc2c1NC1C2CC3C[C@H]1CC(O)(C3)C2 (stereo partly drawn)	2.22 µM (active)
C=CCNc1c(O)cc2c(O)c1C[C@@H](C)C[C@H](OC)[C@H](O)[C@@H](C)/C=C(/C)[C@H](OC(N)=O)[C@@H](OC)/C=C\C=C(\C)C(=O)N2	0.0443 µM (active)
C=C1C(=O)O[C@@H]2[C@H]3C(C)=CC[C@@]34O[C@@]4(C)CC[C@@H]12	12.5 µM (active)
CC[C@H]1CN2CCc3cc(OC)c(OC)cc3C2C[C@@H]1CC1NCCc2cc(OC)c(OC)cc21 (stereo partly drawn)	0.279 µM (active)
CC(=O)c1ccc2c(c1)c1cc(C(C)=O)ccc1n2CCNC(C)C	1.11 µM (active)
CC1=C2[N-][C@H]([C@H](CC(N)=O)[C@@]2(C)CCC(=O)NC[C@@H](C)OP(=O)([O-])O[C@H]2[C@@H](O)[C@@H](n3cnc4cc(C)c(C)cc43)O[C@@H]2CO)[C@]2(C)N=C(C(C)=C3N=C(C=C4N=C1[C@@H](CCC(N)=O)C4(C)C)[C@@H](CCC(N)=O)[C@]3(C)CC(N)=O)[C@@H](CCC(N)=O)[C@]2(C)CC(N)=O.O.[Co+2]	14 µM (active)
CS[C@H]1SC[C@@H]2C(=O)N(C)[C@H](C(C)C)C(=O)OC[C@H](NC(=O)c3cnc4ccccc4n3)C(=O)N[C@H](C)C(=O)N(C)[C@H]1C(=O)N(C)[C@H](C(C)C)C(=O)OC[C@H](NC(=O)c1cnc3ccccc3n1)C(=O)N[C@H](C)C(=O)N2C	0.0125 µM (active)
